target: UniProtKB P10635
Sequence (P10635 whole entry): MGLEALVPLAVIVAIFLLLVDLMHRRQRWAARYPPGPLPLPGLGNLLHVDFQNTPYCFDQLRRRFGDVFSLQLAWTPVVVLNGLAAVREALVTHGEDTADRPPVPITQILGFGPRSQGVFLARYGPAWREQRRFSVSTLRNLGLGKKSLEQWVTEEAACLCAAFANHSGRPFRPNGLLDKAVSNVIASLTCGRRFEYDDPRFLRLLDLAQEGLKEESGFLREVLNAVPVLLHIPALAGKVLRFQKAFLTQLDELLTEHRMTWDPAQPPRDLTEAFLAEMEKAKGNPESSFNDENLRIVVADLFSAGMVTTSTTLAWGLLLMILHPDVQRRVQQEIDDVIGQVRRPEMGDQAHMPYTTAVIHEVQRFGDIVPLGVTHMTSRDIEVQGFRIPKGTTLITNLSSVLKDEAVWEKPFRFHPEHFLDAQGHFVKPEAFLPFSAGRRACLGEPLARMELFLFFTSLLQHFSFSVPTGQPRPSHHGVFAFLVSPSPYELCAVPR
pIC50: −log10 of the molar value.
value_type: pIC50

1. C=CC1(C)CC(OC(=O)CSc2nc(N)cc(N)n2)C2(C)C(C)CCC3(CCC(=O)C32)C(C)C1O (stereo not shown) [DPTM] | < 4.00

###

system: CYP3A; assay: Cocktail CYP inhibition in rat liver microsomes, CYP3A (dapsone); type: in vitro ADME; conditions: probe dapsone (55 μM), cocktail method, read-out: IC50 values, CYP3A in RLMs
value_type: IC50 at 15 min (µM)

1. C=CC1(C)CC(OC(=O)CSc2nc(N)cc(N)n2)C2(C)C(C)CCC3(CCC(=O)C32)C(C)C1O (stereo not shown) [DPTM] | 10

###

target: CYP2E1 (Rattus norvegicus, UniProt P05182)
Sequence (P05182 whole entry): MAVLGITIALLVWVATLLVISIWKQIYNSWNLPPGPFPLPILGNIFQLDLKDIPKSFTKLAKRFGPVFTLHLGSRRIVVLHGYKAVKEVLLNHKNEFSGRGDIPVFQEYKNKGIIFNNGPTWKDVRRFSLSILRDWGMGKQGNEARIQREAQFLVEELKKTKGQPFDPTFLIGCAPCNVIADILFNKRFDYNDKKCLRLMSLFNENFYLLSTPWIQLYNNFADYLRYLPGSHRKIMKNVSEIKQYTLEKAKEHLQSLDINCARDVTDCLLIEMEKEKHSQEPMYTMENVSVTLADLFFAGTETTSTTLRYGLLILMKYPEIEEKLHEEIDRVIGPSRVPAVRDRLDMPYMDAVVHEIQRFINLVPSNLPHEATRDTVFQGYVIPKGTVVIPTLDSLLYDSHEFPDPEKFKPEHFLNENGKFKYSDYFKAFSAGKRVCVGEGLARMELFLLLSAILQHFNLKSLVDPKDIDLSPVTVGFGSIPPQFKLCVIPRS
value_type: IC50 (µM)

1. C=CC1(C)CC(OC(=O)CSc2nc(N)cc(N)n2)C2(C)C(C)CCC3(CCC(=O)C32)C(C)C1O (stereo not shown) | 61
